- Target system: HIV-1 YU-2 gp120 (HIV-1 (YU-2), UniProt P35961)
- Assay notes: SPR
pKd: −log10 of the molar value.
Attribute: pKd

{"Binder": "Fab m18 H96A (HCDR3) (Fab, V domains shown) VH: VQLLESGPGVVKPSETLSLTCTVSGASVNNYYWTWVRQPPGKGLEWIGNVYDSGDTNYNPSLSSRLSLSMDTSKNQFSLRLSSVTAADTATYYCARYARHFIRGPLSFDYWGRGTLVTVSS VL: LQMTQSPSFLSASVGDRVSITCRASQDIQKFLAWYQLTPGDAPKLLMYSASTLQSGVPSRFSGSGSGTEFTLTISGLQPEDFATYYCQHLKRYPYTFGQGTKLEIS", "pKd": 7.93}
{"Binder": "Fab m18 R93A (LCDR3) (Fab, V domains shown) VH: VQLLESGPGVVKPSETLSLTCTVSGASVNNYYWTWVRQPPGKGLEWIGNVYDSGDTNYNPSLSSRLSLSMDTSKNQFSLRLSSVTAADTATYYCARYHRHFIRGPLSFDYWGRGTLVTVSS VL: LQMTQSPSFLSASVGDRVSITCRASQDIQKFLAWYQLTPGDAPKLLMYSASTLQSGVPSRFSGSGSGTEFTLTISGLQPEDFATYYCQHLKAYPYTFGQGTKLEIS", "pKd": 8.70}
{"Binder": "Fab m18 R24A (LCDR1) (Fab, V domains shown) VH: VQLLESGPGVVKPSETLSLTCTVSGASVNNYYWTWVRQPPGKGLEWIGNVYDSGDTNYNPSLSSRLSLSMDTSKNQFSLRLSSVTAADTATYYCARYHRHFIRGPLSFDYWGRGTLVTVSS VL: LQMTQSPSFLSASVGDRVSITCAASQDIQKFLAWYQLTPGDAPKLLMYSASTLQSGVPSRFSGSGSGTEFTLTISGLQPEDFATYYCQHLKRYPYTFGQGTKLEIS", "pKd": 7.77}
